The reported measurements were obtained from patent US20130203709A1.

I'd appreciate it if you could supply % Inhibition Mcl-1 values for the items below.
molecular target: Mcl-1 (Homo sapiens); test: fluorescence polarization (FP) assay, disruption of the Mcl-1/BH3 interaction; assay type: binding; details: reactive fragments (SZ, TA); 100 μM per FIG. 22 legend; FP assay

Fill in the blank: the reported % Inhibition Mcl-1 of COc1ccc(S(=O)(=O)N=[N+]=[N-])cc1 [SZ19] is ____.
<1%

Need % Inhibition Mcl-1 of [N-]=[N+]=NS(=O)(=O)c1ccc(Cl)cc1 [SZ18] , thanks.
<1%

Value lookup for % Inhibition Mcl-1; key = [N-]=[N+]=NS(=O)(=O)c1ccc(COc2ccccc2[N+](=O)[O-])cc1 [SZ13]
<1%

----------
target: Mcl-1 (Homo sapiens, UniProt Q07820); assay: fluorescence polarization (FP) assay, disruption of the Mcl-1/BH3 interaction; format: binding; conditions: reactive fragments (SZ, TA); 100 μM per FIG. 22 legend; FP assay; read-out: % Inhibition Mcl-1
Sequence (Q07820 whole entry, the tested form may be a part): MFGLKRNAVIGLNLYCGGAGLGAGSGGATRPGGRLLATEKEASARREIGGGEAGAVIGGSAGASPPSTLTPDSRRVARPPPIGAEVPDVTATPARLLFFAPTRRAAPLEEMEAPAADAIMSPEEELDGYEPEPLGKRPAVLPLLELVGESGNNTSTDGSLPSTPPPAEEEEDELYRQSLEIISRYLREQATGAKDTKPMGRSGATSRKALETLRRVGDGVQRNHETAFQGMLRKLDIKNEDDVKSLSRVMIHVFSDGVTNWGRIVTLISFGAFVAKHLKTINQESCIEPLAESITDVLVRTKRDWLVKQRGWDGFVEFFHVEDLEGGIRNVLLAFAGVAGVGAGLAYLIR
Could you please report measured inhibition at 100 µM for the items listed next?

Requested field: inhibition at 100 µM. Item: CCN(CC)c1ccc(CNc2ccc(S(=O)(=O)N=[N+]=[N-])cc2)cc1
< 1%

Look up inhibition at 100 µM: CC(C)(C)c1ccc(-c2ccc(S(=O)(=O)N=[N+]=[N-])cc2)cc1
< 1%

Request the reported inhibition at 100 µM associated with O=C(O)c1ccco1
< 1%

Could you tell me which inhibition at 100 µM is on file for O=C(O)c1cccc([N+](=O)[O-])c1 ?
< 1%

Using the record for [N-]=[N+]=NS(=O)(=O)c1ccc(CN(CCSc2ccccc2)Cc2ccc3c(c2)OCO3)cc1 , report its inhibition at 100 µM.
< 1%

Please report the recorded inhibition at 100 µM for [N-]=[N+]=NS(=O)(=O)c1ccc(CN(CCSc2ccccc2)Cc2ccc(S(N)(=O)=O)cc2)cc1 .
< 1%

// query inhibition at 100 µM value for entry [N-]=[N+]=NS(=O)(=O)CCN(CCSc1ccccc1)Cc1ccc2c(c1)OCO2
< 1%

Using the record for [N-]=[N+]=NS(=O)(=O)c1ccc(CNc2cccc([N+](=O)[O-])c2)cc1 , report its inhibition at 100 µM.
< 1%

Query (compound): COc1cc2c(cc1OC)C(c1ccccc1)N(Cc1ccc(S(=O)(=O)N=[N+]=[N-])cc1)CC2 (stereo not shown) ; field requested: inhibition at 100 µM
< 1%

State the recorded inhibition at 100 µM for this entry: CC(=O)Nc1ccc(S(=O)(=O)N=[N+]=[N-])cc1
< 1%

Which inhibition at 100 µM is reported for this compound? [N-]=[N+]=NS(=O)(=O)CCN1CCN(Cc2ccc3c(c2)OCO3)CC1
< 1%

What value of inhibition at 100 µM has been reported for the following compound? O=C(O)c1ccno1
< 1%

May I ask what inhibition at 100 µM has been recorded for [N-]=[N+]=NS(=O)(=O)CCN(Cc1ccccc1)Cc1ccccc1 ?
< 1%

----------
Provide the recorded inhibition at 100 µM for the entries that follow.
molecular target: Bcl-XL (Homo sapiens); assay: fluorescence polarization (FP) assay, disruption of the Bcl-XL/BH3 interaction; type: binding; conditions: reactive fragments (SZ, TA); 100 μM per FIG. 22 legend; FP assay; read-out: % Inhibition Bcl-XL
Sequence (Q07817 whole entry, the tested form may be a part): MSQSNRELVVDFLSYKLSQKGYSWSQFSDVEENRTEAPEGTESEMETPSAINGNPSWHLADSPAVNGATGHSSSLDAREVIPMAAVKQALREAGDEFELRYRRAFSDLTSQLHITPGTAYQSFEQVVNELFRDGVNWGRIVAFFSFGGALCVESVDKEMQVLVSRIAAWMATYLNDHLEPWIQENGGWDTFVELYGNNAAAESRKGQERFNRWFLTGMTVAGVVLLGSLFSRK

Which inhibition at 100 µM reading was recorded for the compound Cc1nc(-c2ccccc2)sc1C(=O)O ?
< 1%

What measured inhibition at 100 µM goes with O=C(O)c1cccc([N+](=O)[O-])c1 ?
< 1%

Need inhibition at 100 µM, item CCN(CC)c1ccc(CNc2ccc(S(=O)(=O)N=[N+]=[N-])cc2)cc1
< 1%

Give its inhibition at 100 µM value. Item: COc1cc2c(cc1OC)C(c1ccccc1)N(Cc1ccc(S(=O)(=O)N=[N+]=[N-])cc1)CC2 (centres unmarked)
< 1%

Reported inhibition at 100 µM for COc1cc2c(cc1OC)C(c1ccccc1)N(CC(=O)O)CC2 (centres unmarked) : what is it?
< 1%

Quick one: inhibition at 100 µM of CC1(C)CCN(c2ccc(C(=O)O)cc2)CC1 ?
< 1%

Can you look up the measured inhibition at 100 µM of [N-]=[N+]=NS(=O)(=O)CCN(Cc1ccccc1)Cc1ccccc1 for me?
< 1%

What value of inhibition at 100 µM has been recorded for this entry: [N-]=[N+]=NS(=O)(=O)c1ccc(CNc2cccc([N+](=O)[O-])c2)cc1
< 1%

Given [N-]=[N+]=NS(=O)(=O)CCN1CCCC2CCCCC21 (centres unmarked) , state its recorded inhibition at 100 µM.
< 1%

Please give the measured inhibition at 100 µM for this compound: [N-]=[N+]=NS(=O)(=O)CCN(CCSc1ccccc1)Cc1ccc2c(c1)OCO2
< 1%

// inhibition at 100 µM lookup, key: O=C(O)c1ccco1
< 1%
